Origin of values: ChEMBL document CHEMBL5046322

Sequence of the target: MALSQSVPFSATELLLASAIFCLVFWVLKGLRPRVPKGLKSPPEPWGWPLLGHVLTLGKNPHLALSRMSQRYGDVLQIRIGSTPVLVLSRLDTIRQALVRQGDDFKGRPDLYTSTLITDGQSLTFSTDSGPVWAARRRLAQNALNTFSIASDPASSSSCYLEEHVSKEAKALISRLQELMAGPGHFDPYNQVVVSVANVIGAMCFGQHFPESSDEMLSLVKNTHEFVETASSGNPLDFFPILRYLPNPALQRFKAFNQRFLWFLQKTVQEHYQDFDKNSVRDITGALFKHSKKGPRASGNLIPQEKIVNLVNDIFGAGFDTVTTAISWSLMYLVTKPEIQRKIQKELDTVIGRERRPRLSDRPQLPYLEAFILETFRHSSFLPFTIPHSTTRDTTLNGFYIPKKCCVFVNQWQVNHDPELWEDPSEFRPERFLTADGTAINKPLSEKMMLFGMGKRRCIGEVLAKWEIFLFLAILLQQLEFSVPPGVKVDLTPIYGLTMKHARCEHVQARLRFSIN

SAMPLE_SMILES | IC50
Cn1nccc1Nc1ncc(Cl)c(-c2cc3n(c2)C(=O)N([C@H](CO)c2cccc(Cl)c2)C3)n1 | > 5 µM

* * *

Test: Clearance in Sprague-Dawley rat plasma at 1 mg/kg, iv and measured after 24 hrs by LC/MS/MS analysis
Format: ADME, organism-based

SAMPLE_SMILES | clearance
Cc1cnc(Nc2ccnn2C)nc1-c1cc2n(c1)C(=O)N([C@H](CO)c1cccc(Cl)c1)C2 | 25.3 mL/min/kg
Cc1cnc(Nc2ccnn2C)nc1-c1cc2n(c1)C(=O)N([C@H](CO)c1cccc(Cl)c1)CC2 | 38.5 mL/min/kg

* * *

Test: Plasma protein binding in human
Assay type: ADME, cell-free
Settings: read-out: PPB (converted)
OBSERVED_PROPERTY: fraction unbound

SAMPLE_SMILES | OBSERVED_PROPERTY | TEST_VALUE
Cc1cnc(Nc2ccnn2C)nc1-c1cc2n(c1)C(=O)N([C@H](CO)c1cccc(Cl)c1)C2 | fraction unbound | 0.016

* * *

Target: Cytochrome P450 2D6 (Homo sapiens)
Sequence (P10635 whole entry): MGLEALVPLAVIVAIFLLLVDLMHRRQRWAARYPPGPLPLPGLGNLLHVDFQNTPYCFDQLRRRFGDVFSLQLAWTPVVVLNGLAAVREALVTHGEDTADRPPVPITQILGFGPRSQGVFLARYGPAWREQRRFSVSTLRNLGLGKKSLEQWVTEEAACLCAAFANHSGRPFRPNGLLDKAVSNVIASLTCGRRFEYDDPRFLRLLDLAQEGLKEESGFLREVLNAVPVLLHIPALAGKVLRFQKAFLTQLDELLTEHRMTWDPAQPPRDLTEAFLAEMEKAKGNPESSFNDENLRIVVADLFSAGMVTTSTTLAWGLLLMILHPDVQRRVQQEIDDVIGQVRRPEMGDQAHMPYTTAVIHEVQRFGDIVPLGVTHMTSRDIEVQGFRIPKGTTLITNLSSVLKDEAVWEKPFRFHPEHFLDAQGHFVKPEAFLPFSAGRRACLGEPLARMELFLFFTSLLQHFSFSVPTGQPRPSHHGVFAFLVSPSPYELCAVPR
OBSERVED_PROPERTY: IC50 (nM)

SAMPLE_SMILES | TEST_VALUE
Cn1nccc1Nc1ncc(Cl)c(-c2cc3n(c2)C(=O)N([C@H](CO)c2cccc(Cl)c2)C3)n1 | 350

* * *

Test: Cmax in plasma of BALB/c mouse xenografted with human COLO 205 cells at 25 mg/kg, po for 14 days
Assay type: ADME, organism-based
Parameters: route oral, dose 25 mg/kg, time 14 day
OBSERVED_PROPERTY: Cmax (ng/mL)

SAMPLE_SMILES | OBSERVED_PROPERTY | TEST_VALUE
Cc1cnc(Nc2ccnn2C)nc1-c1cc2n(c1)C(=O)N([C@H](CO)c1cccc(Cl)c1)C2 | Cmax | 5150

* * *

Experiment: Cmax in Sprague-Dawley rat plasma at 1 mg/kg, iv and measured after 24 hrs by LC/MS/MS analysis
Assay type: ADME, organism-based
Parameters: route intravenous, dose 1 mg/kg, time 24 hrs
Cmax reference
OBSERVED_PROPERTY: Cmax (ng/mL)

SAMPLE_SMILES | TEST_VALUE
Cc1cnc(Nc2ccnn2C)nc1-c1cc2n(c1)C(=O)N([C@H](CO)c1cccc(Cl)c1)CC2 | 84.3
Cc1cnc(Nc2ccnn2C)nc1-c1cc2n(c1)C(=O)N([C@H](CO)c1cccc(Cl)c1)C2 | 219
